Data origin: paper PMC4505863

Task for the reader: assign each of the following compounds its reported pKi.
Target: human 5-HT2C receptor (Homo sapiens, UniProt P28335)
Sequence (P28335 33-458): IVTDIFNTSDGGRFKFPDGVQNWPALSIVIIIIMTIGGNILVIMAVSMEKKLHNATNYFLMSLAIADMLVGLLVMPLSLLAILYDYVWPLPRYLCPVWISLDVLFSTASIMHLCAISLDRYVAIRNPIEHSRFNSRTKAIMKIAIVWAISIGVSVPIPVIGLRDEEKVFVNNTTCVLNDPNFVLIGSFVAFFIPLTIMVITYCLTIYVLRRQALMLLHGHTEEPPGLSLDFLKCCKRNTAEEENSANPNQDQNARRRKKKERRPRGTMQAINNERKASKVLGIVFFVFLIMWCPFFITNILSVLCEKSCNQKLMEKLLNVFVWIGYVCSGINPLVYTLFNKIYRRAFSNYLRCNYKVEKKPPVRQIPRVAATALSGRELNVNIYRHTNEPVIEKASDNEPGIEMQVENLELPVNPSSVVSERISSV
Experiment: h5-HT2C affinity, antagonist radioligand [3H]mesulergine
Type: binding
Give bare numbers, as −log10 of the molar value.

1) COc1ccc2[nH]cc(CCNCc3cccc(I)c3)c2c1 [Compound 5i]	8.19

Dear colleague, could you please provide pKi for the compounds listed below?
1. COc1cc(CCNCc2cccc(Br)c2)c(OC)cc1I [Compound 4d]
2. COc1cccc(CNCCc2c[nH]c3ccc(OC)cc23)c1 [Compound 5b]
3. COc1cc(CCNCc2ccccc2OC)c(OC)cc1I [Compound 1]
4. COc1ccc2[nH]cc(CCNCc3cccc(SC)c3)c2c1 [Compound 5l]
5. COc1ccc2[nH]cc(CCNCc3ccc(Br)cc3)c2c1 [Compound 5f]
6. COc1ccc2[nH]cc(CCNCc3cccc(Cl)c3)c2c1 [Compound 5h]

[8.12, 7.42, 9.16, 7.88, 6.60, 7.55]

Batch lookup, pKi per entry.
1. COc1ccc(CNCCc2c[nH]c3ccc(OC)cc23)cc1 [Compound 5c]
2. COc1ccc2[nH]cc(CCNCc3ccccc3Br)c2c1 [Compound 5d]

1. 6.90
2. 7.00

Could I get pKi for every one of these entries?
1. COc1ccc(CNCCc2cc(OC)c(I)cc2OC)cc1 [Compound 4b]
2. COc1cccc(CNCCc2cc(OC)c(I)cc2OC)c1 [Compound 4a]

1: 7.85; 2: 8.38

====

Target: UniProtKB P08909
Sequence (P08909 33-460): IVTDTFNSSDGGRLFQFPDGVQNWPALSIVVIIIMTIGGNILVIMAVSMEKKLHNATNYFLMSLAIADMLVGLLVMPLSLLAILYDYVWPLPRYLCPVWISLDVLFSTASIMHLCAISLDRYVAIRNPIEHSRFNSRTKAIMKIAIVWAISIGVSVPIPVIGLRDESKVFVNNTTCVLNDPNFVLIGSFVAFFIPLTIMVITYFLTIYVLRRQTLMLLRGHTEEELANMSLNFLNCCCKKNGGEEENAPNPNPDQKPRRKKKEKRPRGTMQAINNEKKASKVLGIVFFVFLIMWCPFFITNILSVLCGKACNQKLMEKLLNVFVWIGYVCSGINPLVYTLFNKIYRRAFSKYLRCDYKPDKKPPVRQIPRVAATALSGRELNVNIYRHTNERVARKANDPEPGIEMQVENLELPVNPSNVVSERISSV
Test: Ca2+ mobilization assay
Assay type: cell-based
Conditions: r5-HT2C EC50, Ca2+ mobilization
Task for the reader: assign each of the following compounds its reported EC50.
Give bare numbers, in nM.

For every listed record, write down its EC50.
1. COc1cc(CCNCc2ccccc2Br)c(OC)cc1I
2. COc1cccc(CNCCc2c[nH]c3ccc(OC)cc23)c1
3. COc1ccc2[nH]cc(CCNCc3cccc(C(F)(F)F)c3)c2c1
4. COc1ccc2[nH]cc(CCNCc3cccc(F)c3)c2c1
5. COc1ccc2[nH]cc(CCNCc3cccc(I)c3)c2c1

[105, 168, 162, 46, 313]

Lab note: each compound below needs its EC50 filled in.
1. COc1cc(CCNCc2ccccc2OC)c(OC)cc1I
2. COc1ccc2[nH]cc(CCNCc3cccc(Cl)c3)c2c1
3. COc1ccc2[nH]cc(CCNCc3ccccc3Br)c2c1
4. COc1cc(CCNCc2ccc(Br)cc2)c(OC)cc1I
5. COc1cccc(CNCCc2cc(OC)c(I)cc2OC)c1

95
286
898
290
133

====

Target: h5-HT2C (Homo sapiens, UniProt P28335)
Sequence (P28335 33-458): as the sequence (P28335 33-458) above
Assay: Ca2+ mobilization assay
Assay type: cell-based
Settings: h5HT2C pEC50 ± SEM, Ca2+ mobilization
quantity: EC50 (µM)
One number for each entry, in µM.

What measured EC50 is associated with COc1cc(CCNCc2ccc(Br)cc2)c(OC)cc1I [Compound 4e] on h5-HT2C (Homo sapiens, UniProt P28335)? 0.219

====

Target: 5-HT3 (Homo sapiens, UniProt P46098)
Sequence (P46098 24-478): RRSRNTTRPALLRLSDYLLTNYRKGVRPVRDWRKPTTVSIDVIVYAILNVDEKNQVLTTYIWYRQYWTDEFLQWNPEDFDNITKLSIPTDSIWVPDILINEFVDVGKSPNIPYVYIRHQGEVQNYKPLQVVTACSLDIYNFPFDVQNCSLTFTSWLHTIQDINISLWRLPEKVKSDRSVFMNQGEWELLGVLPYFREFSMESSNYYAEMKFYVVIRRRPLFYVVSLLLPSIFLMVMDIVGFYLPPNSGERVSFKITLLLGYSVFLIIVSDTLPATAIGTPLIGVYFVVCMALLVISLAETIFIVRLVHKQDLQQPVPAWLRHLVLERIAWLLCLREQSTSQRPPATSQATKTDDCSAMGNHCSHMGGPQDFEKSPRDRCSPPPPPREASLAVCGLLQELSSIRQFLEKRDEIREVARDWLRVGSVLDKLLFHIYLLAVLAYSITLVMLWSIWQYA
Test: PDSP screening affinity 5-HT3
Assay type: binding
quantity: Ki

1. COc1ccc2[nH]cc(CCNCc3cccc(Cl)c3)c2c1 [Compound 5h]	> 10 µM
2. COc1cc(CCNCc2ccc(Br)cc2)c(OC)cc1I [Compound 4e]	2.46 µM
3. COc1cccc(CNCCc2c[nH]c3ccc(OC)cc23)c1 [Compound 5b]	> 10 µM
4. COc1ccc2[nH]cc(CCNCc3ccccc3Br)c2c1 [Compound 5d]	6.17 µM

# next compound below
Please report the recorded Ki for COc1cc(CCNCc2cccc(Br)c2)c(OC)cc1I [Compound 4d] . > 10 µM
